Tested on: CCRF-CEM leukemia
Assay: NCI-60 one-dose screen, 48 h (100 = growth as untreated, 0 = no growth, -100 = all killed)
Conditions: 10 µM unless noted
This is part of a sample that, as a whole, favours compounds with a hit. Of some 83,000 tested, about 20% had one in any assay.
Reported growth values for a set of compounds
Field: numeric (%). Do not append units.

compound	growth, %
CCCCN1CCCC[C@@H]1C(=O)N[C@H](C(=O)N(C)[C@H](CCc1nc(C(=O)N[C@@H](Cc2ccccc2)C[C@H](C)C(=O)OC)cs1)C(C)C)[C@@H](C)CC	61.6

Then there is this compound:
// field: growth; key: Nc1c(F)cc(-c2nc3cc(F)ccc3[se]2)cc1F ; value = 88.7
